- assay target: β-Glucosidase Glu3A
- Construct: cytosolic enzyme, purified as formerly reported
- experimental protocol: pNPβGlu hydrolysis, A400
- Format: biochemical, Ruminiclostridium cellulolyticum
- condition set: competitive; substrate p-nitrophenyl-β-D-glucoside, 50 mM phosphate pH 7.0, 37°C; read-out: Mean enzyme concn (mM) ± SD^a / β-Glucosidase (Glu3A)
Documented Ki across a set of compounds
Report as: number unit

# compound OC[C@H]1OC(O)[C@H](O)[C@@H](O)[C@@H]1O (some centres unmarked) ; its Ki = 3.99 mM

Here is another compound to look at.
# compound OC[C@H]1O[C@@H](O[C@H]2[C@H](O)[C@@H](O)C(O)O[C@@H]2CO)[C@H](O)[C@@H](O)[C@@H]1O (some centres unmarked) ; its Ki = 36.3 mM
